This collection of values is drawn from patent US7354734B2.

Test system: fuLAP2
Format: biochemical, Aspergillus fumigatus
COND: cation salt 1 mM, Leu-MCA substrate, 15 min pre-incubation
READOUT TYPE: fuLAP2 activity as percentage of control reaction without any cation (%)
Provide the reading as a plain figure in %.

Prompt: Which fuLAP2 activity as percentage of control reaction without any cation is reported for this molecule? [Cl-].[Cl-].[Mg+2] [MgCl2]
Completion: 108.0

Prompt: Okay, and [Ca+2].[Cl-].[Cl-] [Ca^++, CaCl2] ?
Completion: 165.4

Prompt: Okay, and [Cl][Ni][Cl] [Ni, NiCl2] ?
Completion: 149.3

Prompt: Okay, and [Cl][Cu][Cl] [Cu^++, CuCl2] ?
Completion: 73.6

Prompt: Okay, and [Cl][Mn][Cl] [Mn^++, MnCl2] ?
Completion: 140.2

Prompt: Okay, and [Cl-].[Cl-].[Zn+2] [Zn, ZnCl2] ?
Completion: 119.5

Prompt: Okay, and [Cl-].[Cl-].[Co+2] [Co^++, CoCl2] ?
Completion: 662.7

----------
Field: fuLAP1 activity as percentage of control reaction without any cation. Provide a value for each of the compounds that follow.
TARGET OR SYSTEM: fuLAP1 (Aspergillus fumigatus)
Sequence (Q5VJG6 16-388): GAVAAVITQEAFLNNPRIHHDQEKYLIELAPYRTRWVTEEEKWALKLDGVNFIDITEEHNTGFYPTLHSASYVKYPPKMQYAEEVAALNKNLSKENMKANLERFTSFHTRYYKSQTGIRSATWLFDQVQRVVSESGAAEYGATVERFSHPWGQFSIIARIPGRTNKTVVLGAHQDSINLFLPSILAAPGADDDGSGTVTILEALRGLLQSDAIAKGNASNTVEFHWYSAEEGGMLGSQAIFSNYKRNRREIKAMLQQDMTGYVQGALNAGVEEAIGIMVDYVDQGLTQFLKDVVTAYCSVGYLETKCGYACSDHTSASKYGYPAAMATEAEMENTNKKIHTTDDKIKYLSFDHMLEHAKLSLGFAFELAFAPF
ASSAY DETAILS: biochemical
Assay type: biochemical
COND: cation salt 0.5 mM, Leu-MCA substrate, 15 min pre-incubation
Provide the reading as a plain figure in %.

Prompt: Which fuLAP1 activity as percentage of control reaction without any cation is reported for this compound? [Cl][Mn][Cl]
Completion: 25.9

Prompt: Okay, and [Cl-].[Cl-].[Co+2] ?
Completion: 104.3

Prompt: Okay, and [Cl-].[Cl-].[Zn+2] ?
Completion: 60.7

Prompt: Okay, and [Cl][Cu][Cl] ?
Completion: 25.8

Prompt: Okay, and [Cl][Ni][Cl] ?
Completion: 51.7

Prompt: Okay, and [Cl-].[Cl-].[Mg+2] ?
Completion: 68.5

Prompt: Okay, and [Ca+2].[Cl-].[Cl-] ?
Completion: 54.9

----------
TARGET OR SYSTEM: pkLAP (microsomal LAP from porcine kidney) (Sus scrofa, UniProt P15145)
Construct: purchased Sigma; host or cells: porcine kidney
Sequence (P15145 whole entry): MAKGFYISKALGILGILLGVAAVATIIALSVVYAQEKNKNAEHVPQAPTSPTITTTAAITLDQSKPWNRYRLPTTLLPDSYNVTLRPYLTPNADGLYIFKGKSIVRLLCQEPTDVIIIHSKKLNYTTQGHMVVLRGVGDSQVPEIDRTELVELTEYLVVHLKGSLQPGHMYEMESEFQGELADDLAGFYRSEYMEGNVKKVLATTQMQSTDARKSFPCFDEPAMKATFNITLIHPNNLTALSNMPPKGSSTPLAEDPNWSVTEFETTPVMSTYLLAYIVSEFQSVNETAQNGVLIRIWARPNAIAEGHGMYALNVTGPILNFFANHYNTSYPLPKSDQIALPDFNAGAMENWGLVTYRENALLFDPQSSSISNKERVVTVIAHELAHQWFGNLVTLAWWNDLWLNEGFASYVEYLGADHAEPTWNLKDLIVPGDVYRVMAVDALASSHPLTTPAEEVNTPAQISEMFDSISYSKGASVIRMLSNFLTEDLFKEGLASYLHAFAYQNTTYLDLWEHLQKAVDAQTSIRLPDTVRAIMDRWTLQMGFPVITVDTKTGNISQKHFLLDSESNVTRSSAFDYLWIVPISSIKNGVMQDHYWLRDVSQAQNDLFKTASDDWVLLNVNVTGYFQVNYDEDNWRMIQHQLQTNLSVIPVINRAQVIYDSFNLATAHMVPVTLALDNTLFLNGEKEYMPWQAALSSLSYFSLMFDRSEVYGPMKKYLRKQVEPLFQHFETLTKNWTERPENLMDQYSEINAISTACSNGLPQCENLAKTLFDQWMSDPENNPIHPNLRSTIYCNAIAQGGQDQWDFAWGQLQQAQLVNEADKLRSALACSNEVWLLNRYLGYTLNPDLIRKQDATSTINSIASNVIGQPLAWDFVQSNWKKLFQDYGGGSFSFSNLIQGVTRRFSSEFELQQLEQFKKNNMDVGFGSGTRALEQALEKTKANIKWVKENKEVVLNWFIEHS
ASSAY DETAILS: Effect of inhibitors and metallic cations on LAP activity (Leu-AMC)
Format: biochemical
COND: cation salt 0.5 mM, Leu-MCA substrate, 15 min pre-incubation
Labelling field: enter MET if recorded pkLAP activity as percentage of control reaction without any cation is less than 200%. Enter NOT MET if it equals or exceeds that cut-off.

Prompt: Does the reported pkLAP activity as percentage of control reaction without any cation of [Cl][Cu][Cl] [Cu^++, CuCl2] stay below 200%?
Completion: NOT MET

Prompt: Okay, and [Cl-].[Cl-].[Co+2] [Co^++, CoCl2] ?
Completion: NOT MET

Prompt: Okay, and [Cl][Mn][Cl] [Mn^++, MnCl2] ?
Completion: MET

Prompt: Okay, and [Cl-].[Cl-].[Zn+2] [Zn, ZnCl2] ?
Completion: NOT MET

Prompt: Okay, and [Ca+2].[Cl-].[Cl-] [Ca^++, CaCl2] ?
Completion: MET

Prompt: Okay, and [Cl][Ni][Cl] [Ni, NiCl2] ?
Completion: NOT MET

Prompt: Okay, and [Cl-].[Cl-].[Mg+2] [MgCl2] ?
Completion: MET

----------
TARGET OR SYSTEM: ruLAP2 (Trichophyton rubrum, UniProt Q5QHG6)
Sequence (Q5QHG6 20-495): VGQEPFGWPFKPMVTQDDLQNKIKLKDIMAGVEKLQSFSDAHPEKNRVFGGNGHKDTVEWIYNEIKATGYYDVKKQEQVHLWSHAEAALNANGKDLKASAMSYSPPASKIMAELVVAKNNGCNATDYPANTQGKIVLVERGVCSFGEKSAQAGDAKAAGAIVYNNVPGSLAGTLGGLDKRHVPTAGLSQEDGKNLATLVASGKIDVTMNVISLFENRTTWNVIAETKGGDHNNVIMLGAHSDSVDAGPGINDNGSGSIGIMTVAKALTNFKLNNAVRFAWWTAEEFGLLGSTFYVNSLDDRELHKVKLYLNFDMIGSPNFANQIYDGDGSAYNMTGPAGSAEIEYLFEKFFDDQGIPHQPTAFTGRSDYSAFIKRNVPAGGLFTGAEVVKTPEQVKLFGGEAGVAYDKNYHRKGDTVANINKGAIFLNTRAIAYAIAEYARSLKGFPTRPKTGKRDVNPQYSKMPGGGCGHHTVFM
Format: biochemical
COND: cation salt 0.5 mM, Leu-MCA substrate, 15 min pre-incubation
Field: ruLAP2 activity as percentage of control reaction without any cation. Provide a value for each of the compounds that follow.

Prompt: Which ruLAP2 activity as percentage of control reaction without any cation is reported for this compound? [Cl-].[Cl-].[Co+2]
Completion: 591.2%

Prompt: Okay, and [Cl][Mn][Cl] ?
Completion: 77.5%

Prompt: Okay, and [Cl][Ni][Cl] ?
Completion: 130.5%

Prompt: Okay, and [Cl-].[Cl-].[Mg+2] ?
Completion: 121.2%

Prompt: Okay, and [Cl-].[Cl-].[Zn+2] ?
Completion: 77.9%

Prompt: Okay, and [Ca+2].[Cl-].[Cl-] ?
Completion: 126.6%

Prompt: Okay, and [Cl][Cu][Cl] ?
Completion: 50.9%
